target: Human AHR (Homo sapiens, UniProt P35869); test: hAHR Nuclear Translocation Assay; details: Jump-In T-REx HEK293 cells expressing AhR-EGFP chimera; 45 minutes incubation; ratio of EGFP fluorescent intensity in nuclear over cytosol; 20-point curve
Sequence (P35869 11-848): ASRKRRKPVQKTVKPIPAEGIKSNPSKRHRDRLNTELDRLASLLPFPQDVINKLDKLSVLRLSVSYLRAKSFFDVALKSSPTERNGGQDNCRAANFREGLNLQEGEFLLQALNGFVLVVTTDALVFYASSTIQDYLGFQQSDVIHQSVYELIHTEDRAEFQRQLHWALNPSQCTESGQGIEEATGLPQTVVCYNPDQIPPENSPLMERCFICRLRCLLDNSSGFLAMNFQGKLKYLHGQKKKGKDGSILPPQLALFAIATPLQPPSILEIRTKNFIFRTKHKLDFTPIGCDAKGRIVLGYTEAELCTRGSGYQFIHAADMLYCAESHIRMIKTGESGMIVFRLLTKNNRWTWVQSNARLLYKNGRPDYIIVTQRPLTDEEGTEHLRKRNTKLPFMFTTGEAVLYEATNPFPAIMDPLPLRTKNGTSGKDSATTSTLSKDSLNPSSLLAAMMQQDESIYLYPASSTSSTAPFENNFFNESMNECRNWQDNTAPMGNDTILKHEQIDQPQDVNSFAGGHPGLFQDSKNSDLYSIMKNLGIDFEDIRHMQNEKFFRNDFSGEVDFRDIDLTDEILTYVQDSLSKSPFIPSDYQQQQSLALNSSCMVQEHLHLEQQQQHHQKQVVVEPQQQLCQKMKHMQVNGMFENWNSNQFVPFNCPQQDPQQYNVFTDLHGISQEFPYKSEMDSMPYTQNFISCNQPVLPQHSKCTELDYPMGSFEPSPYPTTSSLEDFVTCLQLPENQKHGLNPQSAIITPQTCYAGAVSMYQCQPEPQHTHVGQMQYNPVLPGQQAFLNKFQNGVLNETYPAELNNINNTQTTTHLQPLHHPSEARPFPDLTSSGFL
pEC50: −log10 of the molar value.
assay endpoint: pEC50

Cn1c(=O)c(C(=O)Nc2ccccn2)cc2c(NCCO)cccc21 8.17
Cn1c(=O)c(C(=O)Nc2ncccc2F)cc2ccccc21 8.72
Cn1c(=O)c(C(=O)Nc2ncc(F)s2)cc2c(NCCO)cccc21 7.28
O=C(Nc1ncccn1)c1cc2cccc3c2n(c1=O)CC3 8.20
COc1cccc(NC(=O)c2cc3ccccc3n(C)c2=O)c1 8.95
Cn1c(=O)c(C(=O)Nc2ncc(F)cn2)cc2ccccc21 9.00
COc1ccc(NC(=O)c2cc3cccc4c3n(c2=O)CCC4)cc1 8.59
COc1ccc(NC(=O)c2cc3cccc4c3n(c2=O)CC4)cc1 9.15
COc1ccc(NC(=O)c2cc3ccc(C)cc3n(C)c2=O)cc1 9.23
Cc1cnc(NC(=O)c2cc3ccccc3n(C)c2=O)nc1 8.63

I = CN(C)CCNc1cccc2c1cc(C(=O)Nc1ccc(F)cn1)c(=O)n2C
II = COc1ccc(NC(=O)c2cc3ccccc3n(C)c2=O)c(C)c1
III = Cc1cccc(NC(=O)c2cc3ccccc3n(C)c2=O)n1
Task field, ranking: reported pEC50, descending order. Please, when replying, give the labels in the order that was requested. II, I, III

A = O=C(Nc1ccccc1)c1cc2ccccc2[nH]c1=O
B = Cc1ccc(NC(=O)c2cc3ccccc3n(C)c2=O)nc1
C = Cn1c(=O)c(C(=O)Nc2ccc(F)cn2)cc2ccccc21
D = CN(C)CCNc1cccc2c1cc(C(=O)Nc1ccccc1)c(=O)n2C
Let's sort these by pEC50, smallest first. Go ahead? Please, when replying, give the labels in the order that was requested. D, A, B, C

1 = Cn1c(=O)c(C(=O)Nc2ccc(F)cc2)cc2cccnc21
2 = CN(C)CCNc1cccc2c1cc(C(=O)Nc1ccccn1)c(=O)n2C
3 = Cc1ccc(NC(=O)c2cc3cccc4c3n(c2=O)CC4)nc1
Task field, ranking: reported pEC50, descending order. Please, when replying, give the labels in the order that was requested. 1, 3, 2

###

molecular target: Human AHR (Homo sapiens); assay: hAHR Nuclear Translocation Assay; conditions: Jump-In T-REx HEK293 cells expressing AhR-EGFP chimera; 45 minutes incubation; ratio of EGFP fluorescent intensity in nuclear over cytosol; 20-point curve
assay endpoint: EC50 (nM)

Use the examples below as a reference point.
CN(C)CCNc1ccc2c(c1)cc(C(=O)Nc1ccccc1)c(=O)n2C 9
Cn1c(=O)c(C(=O)Nc2ncc(C(F)(F)F)cn2)cc2c(NCCO)cccc21 6.66

I = Cn1c(=O)c(C(=O)Nc2ncccn2)cc2ccccc21
II = Cn1c(=O)c(C(=O)Nc2ccccc2O)cc2ccccc21
Please indicate which has the smaller reported EC50: I , or II . // respond with label for picked entry II

P = CNc1ccc2cc(C(=O)Nc3ccc(OC)cc3)c(=O)n(C)c2c1
Q = Cn1c(=O)c(C(=O)Nc2cccnc2)cc2ccccc21
R = O=C(Nc1ccc(F)cn1)c1cc2cccc3c2n(c1=O)CC3
S = Cn1c(=O)c(C(=O)Nc2ccccc2)cc2cc(OCCO)ccc21
Let's sort these by EC50, smallest first. Go ahead? Please, when replying, give the labels in the order that was requested. R, P, Q, S
(R: 0.807 nM, P: 2.21 nM, Q: 3.72 nM, S: 7.45 nM)

a = COc1ccc(NC(=O)c2cc3ccc(C4CC4)cc3n(C)c2=O)cc1
b = Cc1ccc(NC(=O)c2cc3cccc4c3n(c2=O)CC4)cc1
Please indicate which has the smaller reported EC50: a , or b . // respond with label for picked entry b
